// provenance: paper PMC6499816

target: T1, LC3C (recombinant, BLI) (human, UniProt Q9BXW4 1-126)
T1 chain: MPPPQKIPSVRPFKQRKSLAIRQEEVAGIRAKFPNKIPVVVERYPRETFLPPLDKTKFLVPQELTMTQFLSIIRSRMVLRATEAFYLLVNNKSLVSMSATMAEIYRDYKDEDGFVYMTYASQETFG
assayNotes: BLI
pKd: −log10 of the molar value. Ends that are not written are not given here.
quantity: pKd

INSERT INTO results (binder, quantity, observedmeasurement) VALUES
  ('SKDSSCDTDDFVMVPAQFPGDLVA (also: biotin, position not given here) [ULK1 LIR peptide (biotinylated, BLI)]', 'pKd', 5.60),
  ('GGSSGNTHDDFVMIDFKPAFSKDD (also: biotin, position not given here) [ATG13 LIR peptide (biotinylated, BLI)]', 'pKd', 6.32),
  ('SDNCSGGDDDWTHLSSKEVDPSTG (also: biotin, position not given here) [p62 LIR peptide (biotinylated, BLI)]', 'pKd', 5.57);
